Overview of recorded normalized growth for various compounds
# protocol: chemical genetic growth profiling, strain panel (AID 1159580);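 also: tested at 20 µM; growth read once vehicle control cultures reached saturation at 30 °C; 1 = growth at the plate median or of vehicle wells; lower values mean less growth of the strain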
# condition_parameters: S. cerevisiae deletion strains, growth OD, locus YDL035C, strain GPR1, active compounds read low
Hit rate of the full screen: of about 5,500 compounds, about 2,000 (36%) were called active. Not shown: some 18% with an inconclusive outcome. Some of the results follow.

compound	normalized growth
COc1cc(O)c(C(C)=O)c(OC)c1	1.04
C[C@]12CCC3C(CC[C@H]4C[C@@H](Cl)CC[C@]34C)C1CCC2=O (stereo partly specified)	0.921
CCS(=O)(=O)CCn1c([N+](=O)[O-])cnc1C	1.04
COc1ccc2c(=O)c(CC(=O)O)coc2c1	1.03
COc1cc(O)c(C(=O)c2ccccc2)c(OC)c1	0.972
Cn1nnnc1SCC1=C(C(=O)O)N2C(=O)C(NC(=O)C(OC=O)c3ccccc3)C2SC1 (stereo unspecified)	1.01

This collection of values is drawn from PubChem BioAssay AID1159580.
